Measured values drawn from patent US20180305450A1 for this set.

# TARGET_OR_TEST_SYSTEM: T1, recombinant biotinylated human PAR2 extracellular domain (residues 1-75), N-terminal AviTag, C-terminal Flag … (human, UniProt P55085 26-75, biotin on the AviTag (enzymatic biotinylation))
# T1 construct: also called Bio-human-PAR2 ECD; human PAR2 ECD; not shown: N-terminal AviTag (Avidity LLC); C-terminal Flag and poly Histidine tags
# T1 sequence (P55085 26-75): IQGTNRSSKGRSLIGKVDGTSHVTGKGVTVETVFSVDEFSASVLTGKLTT
# TEST_SUMMARY: HTRF competition with Par0067 IgG, scFv
For each record, check the reported Fold IC50 pH 7.4 (Variant v Par0067): if it is below 8 fold write True, else write False.

{"BINDER": "PaB670107 scFv (scFv, V domains shown, purified scFv; also called ZZ1RD3-D09) VH: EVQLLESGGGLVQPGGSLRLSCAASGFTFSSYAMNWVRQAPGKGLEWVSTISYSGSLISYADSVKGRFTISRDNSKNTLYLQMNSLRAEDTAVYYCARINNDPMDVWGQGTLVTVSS VL: SIELTQPPSVSVSPGQTASITCSGDNLGKKYVQWYQQKPGQSPVLVIYDDSNRPSGIPERFSGSNSGNTATLTISGTQAMDEADYYCHHWHHNPTHHETNVFGGGTKLTVL", "CLASS": "False"}
{"BINDER": "PaB670071 scFv (scFv, V domains shown, purified scFv; also called ZZ1L3F-A02) VH: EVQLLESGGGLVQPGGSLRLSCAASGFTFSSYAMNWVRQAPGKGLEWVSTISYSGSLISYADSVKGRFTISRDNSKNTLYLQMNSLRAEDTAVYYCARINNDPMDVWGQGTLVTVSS VL: SIELTQPPSVSVSPGQTASITCSGDNLGKKYVQWYQQKPGQSPVLVIYDDSNRPSGIPERFSGSNSGNTATLTISGTQAMDEADYYCHTWHHHHHTGEHNHFGGGTKLTVL", "CLASS": "False"}
{"BINDER": "PaB670082 scFv (scFv, V domains shown, purified scFv; also called ZZ1OZA-D02) VH: EVQLLESGGGLVQPGGSLRLSCAASGFTFSSYAMNWVRQAPGKGLEWVSTISHSHSLISYAHSVHGRFTISRDNSKNTLYLQMNSLRAEDTAVYYCARINNDPMDVWGQGTLVTVSS VL: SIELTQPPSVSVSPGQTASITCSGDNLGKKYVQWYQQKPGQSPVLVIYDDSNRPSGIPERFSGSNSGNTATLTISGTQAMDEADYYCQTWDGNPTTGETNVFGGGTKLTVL", "CLASS": "True"}
{"BINDER": "PaB670079 scFv (scFv, V domains shown, purified scFv; also called ZZ1OZJ-G05) VH: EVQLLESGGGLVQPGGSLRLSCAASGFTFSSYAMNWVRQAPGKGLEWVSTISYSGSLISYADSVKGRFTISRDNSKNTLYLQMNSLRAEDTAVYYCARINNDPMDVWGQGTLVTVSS VL: SIELTQPPSVSVSPGQTASITCSGDNLGKKYVQWYQQKPGQSPVLVIYDDSNRPSGIPERFSGSNSGNTATLTISGTQAMDEADYYCQHWDGHHTTGETNHFGGGTKLTVL", "CLASS": "False"}
{"BINDER": "PaB670048 scFv (scFv, V domains shown, purified scFv; also called ZZ1KX4-E11) VH: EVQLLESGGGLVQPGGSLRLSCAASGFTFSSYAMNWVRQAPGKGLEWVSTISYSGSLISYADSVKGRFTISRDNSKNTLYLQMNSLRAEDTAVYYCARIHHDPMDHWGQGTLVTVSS VL: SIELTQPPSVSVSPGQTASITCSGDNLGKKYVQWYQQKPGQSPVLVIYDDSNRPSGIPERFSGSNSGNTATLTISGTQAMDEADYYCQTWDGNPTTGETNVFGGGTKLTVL", "CLASS": "True"}
